B1: TPR 5TU (parent)
chain: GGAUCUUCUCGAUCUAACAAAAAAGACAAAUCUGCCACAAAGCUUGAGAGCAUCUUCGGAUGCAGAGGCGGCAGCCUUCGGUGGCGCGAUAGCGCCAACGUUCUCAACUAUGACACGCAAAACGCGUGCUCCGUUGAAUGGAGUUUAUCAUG

- Variants of: B1
- procedureText: polymerase ribozyme fitness, log enrichment relative to wild type (log ratio); higher = more active; in vitro selection for triplet polymerase activity
This sample holds only a part of the variants without activity.
resultType: polymerase ribozyme fitness (log ratio)

>>> measured("G34A G84A C95G")
-0.00509
>>> measured("A52C C85U A121C U134C A142C")
-2.29
>>> measured("A47U A52G U144G")
0.507
>>> measured("G80A G126A")
-0.283
>>> measured("A60G A91G")
-2.73
>>> measured("G50U G84U")
-1.81
>>> measured("U6G C95U C96G")
-0.705
>>> measured("U7A A24G C32A G88C C99G U104G G140C")
-4.07
>>> measured("A21U G141A")
1.36
>>> measured("A17G C132G")
-3.28
>>> measured("U44G G136A")
-3.71
>>> measured("A98G G133C")
-1.69
>>> measured("A47U G84U")
-1.78
>>> measured("C54U G84A G92U U144A")
-1.38
>>> measured("C93G A142G")
-3.81
>>> measured("A16U C93U")
-2.81
>>> measured("A26C C63U C85A A120U")
-3.53
>>> measured("U6C A26C A28G")
-3.84
>>> measured("C14G G48A A119G")
-3.43
>>> measured("A24U G83U G136A U146C A150G")
-3.59
>>> measured("C96G G112A")
-4.07
>>> measured("A37C C69G G70A C116A")
-3.56
>>> measured("G74A A122G")
-3.39
>>> measured("U61A C95A")
-1.41
>>> measured("C38U C93U")
-1.06
>>> measured("C54G C93A")
-4.19
>>> measured("U6G G83C")
-0.223
>>> measured("U45G G94A A137G")
-2.23
